Numbers sourced from patent US20240059693A1.

Data export: IC50 values recorded with varicella zoster virus DNA polymerase (Varicella-zoster virus).
readout name: IC50 (nM)

Would you please look over these solved cases?
Cn1nc(C(=O)NCc2ccc(Cl)cc2)c2c1CN(C[C@H]1CCC(=O)N1)C2 ... 5.68
O=C1CC[C@H](CC2Cc3c(C(=O)NCc4ccc(Cl)cc4)nn(CCN4CCOCC4)c3C2)N1 (stereo partly shown) ... 19.7
CC(C1CC(F)(F)C(=O)N1)N1Cc2c(C(=O)NCc3ccc(Cl)cc3)nn(C)c2C1 (stereo not shown) ... 37

A: O=C1CC[C@H](CN2Cc3c(C(=O)NCc4ccc(Cl)cc4)nn(CCC4CCOC4)c3C2)N1 (stereo partly shown)
B: CC(C)CN1CC(n2nc(C(=O)NCc3ccc(Cl)cc3)c3c2CC(C[C@H]2CCC(=O)N2)C3)C1 (stereo partly shown)
## Input Of A and B , which shows the smaller IC50 value? Answer with the label corresponding to your selection.
## Output A
(A: 15.6 nM, B: 26.1 nM)

* * *

Test system: VZV
Assay: Viral qPCR assay, VZV in MRC5 cells
Assay type: cell-based, varicella zoster virus
Conditions: ~72 hrs, read-out: VZV MRC5 Cell (IC50)
readout name: IC50 (nM)
Please reply with the bare figure in nM and do not write the unit itself.

Would you please look over these solved cases?
O=C1CC[C@H](CN2Cc3c(C(=O)NCc4ccc(Cl)cc4)nn(-c4ncc5cnccn45)c3C2)N1 ... 479
Cn1nc(C(=O)NCc2ccc(Cl)cc2)c2c1CC(C[C@@H]1CCC(=O)N1)C2 (single isomer, unassigned) ... 407
CCC1c2c(c(C(=O)NCc3ccc(Cl)cc3)nn2C)CN1C[C@H]1CCC(=O)N1 (single isomer, unassigned) ... 289
CC([C@@H]1CCC(=O)N1)N1Cc2c(C(=O)NCc3ccc(Cl)cc3)nn(C(F)F)c2C1 (some centres unmarked) ... 1210
CC(C)N1CC(n2nc(C(=O)NCc3ccc(Cl)cc3)c3c2CC(C[C@H]2CCC(=O)N2)C3)C1 (some centres unmarked) ... 832
CC(=O)OCC1c2c(c(C(=O)NCc3ccc(Cl)cc3)nn2C)CN1CC1CCC(=O)N1 (single isomer, unassigned) ... 1780
O=C1CC[C@H](CN2Cc3c(C(=O)NCc4ccc(Cl)cc4)nn(C4CCOC4)c3C2)N1 (single isomer, unassigned) [Compound 34] ... 2050

Here is the next item to consider.
Record O=C1CC[C@H](CN2Cc3c(C(=O)NCc4ccc(Cl)cc4)nn(-c4cnsn4)c3C2)N1 , field IC50: 413

* * *

Target: Human cytomegalovirus DNA polymerase (Human cytomegalovirus)
Sequence (P08546 whole entry): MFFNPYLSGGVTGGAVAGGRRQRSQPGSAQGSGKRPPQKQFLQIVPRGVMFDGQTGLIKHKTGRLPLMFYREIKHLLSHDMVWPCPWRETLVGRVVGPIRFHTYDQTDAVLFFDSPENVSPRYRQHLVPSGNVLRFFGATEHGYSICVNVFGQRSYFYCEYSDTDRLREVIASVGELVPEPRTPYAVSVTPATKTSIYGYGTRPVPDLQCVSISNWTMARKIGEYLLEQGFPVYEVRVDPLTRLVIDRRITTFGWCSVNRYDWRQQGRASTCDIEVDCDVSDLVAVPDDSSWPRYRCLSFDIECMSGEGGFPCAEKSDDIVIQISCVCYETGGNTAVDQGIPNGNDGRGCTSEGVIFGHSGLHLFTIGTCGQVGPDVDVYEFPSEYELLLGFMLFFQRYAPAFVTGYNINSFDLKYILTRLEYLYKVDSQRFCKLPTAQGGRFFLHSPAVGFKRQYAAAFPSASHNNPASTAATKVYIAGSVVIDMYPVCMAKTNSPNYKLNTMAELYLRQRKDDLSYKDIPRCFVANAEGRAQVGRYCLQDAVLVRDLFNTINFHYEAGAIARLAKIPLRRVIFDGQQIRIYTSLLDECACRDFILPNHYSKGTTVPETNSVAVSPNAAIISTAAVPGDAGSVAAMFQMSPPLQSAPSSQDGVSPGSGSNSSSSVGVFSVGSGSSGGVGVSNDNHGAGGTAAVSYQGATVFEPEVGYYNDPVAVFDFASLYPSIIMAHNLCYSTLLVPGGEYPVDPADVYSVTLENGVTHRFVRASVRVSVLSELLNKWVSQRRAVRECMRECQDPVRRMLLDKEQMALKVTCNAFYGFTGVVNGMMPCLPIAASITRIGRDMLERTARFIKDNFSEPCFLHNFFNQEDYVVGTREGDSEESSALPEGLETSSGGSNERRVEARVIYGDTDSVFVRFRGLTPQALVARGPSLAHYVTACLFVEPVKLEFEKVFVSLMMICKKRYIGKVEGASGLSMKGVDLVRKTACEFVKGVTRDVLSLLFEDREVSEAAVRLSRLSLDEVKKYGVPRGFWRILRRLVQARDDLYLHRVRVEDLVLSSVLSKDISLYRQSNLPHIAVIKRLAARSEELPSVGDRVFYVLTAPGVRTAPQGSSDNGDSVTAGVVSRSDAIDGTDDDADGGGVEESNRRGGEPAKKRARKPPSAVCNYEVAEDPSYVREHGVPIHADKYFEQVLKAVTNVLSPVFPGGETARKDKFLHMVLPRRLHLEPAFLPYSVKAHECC
pIC50: −log10 of the molar value.
readout name: pIC50

Cn1nc(C(=O)NCc2ccc(Cl)cc2)c2c1CN(CC13CC1CC(=O)N3)C2 (stereo not drawn) ... 6.90

A: CCOc1cnc(-n2nc(C(=O)NCc3ccc(Cl)cc3)c3c2CN(C[C@H]2CCC(=O)N2)C3)nc1
B: O=C1CC[C@H](CN2Cc3c(C(=O)NCc4ccc(Cl)cc4)nn(-c4ncco4)c3C2)N1
C: CC(C1CCC(=O)N1)N1Cc2c(C(=O)NCc3ccc(Cl)cc3)nn(C)c2C1 (single isomer, unassigned) [Compound 2]
D: CCC1c2c(c(C(=O)NCc3ccc(Cl)cc3)nn2C)CN1CC1CCC(=O)N1 (single isomer, unassigned) [Compound 104]
## Input hey, can you rank those compounds up there by pIC50? biggest number first please A complete answer lists every label in the requested sequence.
## Output C, B, A, D
(C: 8.01, B: 7.76, A: 7.51, D: 5.74)

* * *

pIC50: −log10 of the molar value.
Data export: pIC50 values recorded with UniProtKB P09252.
readout name: pIC50

CC1c2c(c(C(=O)NCc3ccc(Cl)cc3)nn2C)CN1C[C@H]1CCC(=O)N1 (single isomer, unassigned) [Compound 107] ... 5.82
CCC1c2c(c(C(=O)NCc3ccc(Cl)cc3)nn2C)CN1CC1CCC(=O)N1 (single isomer, unassigned) [Compound 106] ... 7.52

a: Cn1nc(C(=O)NCc2ccc(Cl)cc2)c2c1CC(CC1CCC(=O)N1)C2 (single isomer, unassigned) [Compound 128]
b: CN(CCn1nc(C(=O)NCc2ccc(Cl)cc2)c2c1CN(Cc1ccncc1F)C2)C(=O)C1CCC1 [Compound 68]
## Input Of a and b , which shows the smaller pIC50 value? Answer with the label corresponding to your selection.
## Output a

* * *

Molecular target: varicella zoster virus DNA polymerase (Varicella-zoster virus, UniProt P09252)
Sequence (P09252 whole entry): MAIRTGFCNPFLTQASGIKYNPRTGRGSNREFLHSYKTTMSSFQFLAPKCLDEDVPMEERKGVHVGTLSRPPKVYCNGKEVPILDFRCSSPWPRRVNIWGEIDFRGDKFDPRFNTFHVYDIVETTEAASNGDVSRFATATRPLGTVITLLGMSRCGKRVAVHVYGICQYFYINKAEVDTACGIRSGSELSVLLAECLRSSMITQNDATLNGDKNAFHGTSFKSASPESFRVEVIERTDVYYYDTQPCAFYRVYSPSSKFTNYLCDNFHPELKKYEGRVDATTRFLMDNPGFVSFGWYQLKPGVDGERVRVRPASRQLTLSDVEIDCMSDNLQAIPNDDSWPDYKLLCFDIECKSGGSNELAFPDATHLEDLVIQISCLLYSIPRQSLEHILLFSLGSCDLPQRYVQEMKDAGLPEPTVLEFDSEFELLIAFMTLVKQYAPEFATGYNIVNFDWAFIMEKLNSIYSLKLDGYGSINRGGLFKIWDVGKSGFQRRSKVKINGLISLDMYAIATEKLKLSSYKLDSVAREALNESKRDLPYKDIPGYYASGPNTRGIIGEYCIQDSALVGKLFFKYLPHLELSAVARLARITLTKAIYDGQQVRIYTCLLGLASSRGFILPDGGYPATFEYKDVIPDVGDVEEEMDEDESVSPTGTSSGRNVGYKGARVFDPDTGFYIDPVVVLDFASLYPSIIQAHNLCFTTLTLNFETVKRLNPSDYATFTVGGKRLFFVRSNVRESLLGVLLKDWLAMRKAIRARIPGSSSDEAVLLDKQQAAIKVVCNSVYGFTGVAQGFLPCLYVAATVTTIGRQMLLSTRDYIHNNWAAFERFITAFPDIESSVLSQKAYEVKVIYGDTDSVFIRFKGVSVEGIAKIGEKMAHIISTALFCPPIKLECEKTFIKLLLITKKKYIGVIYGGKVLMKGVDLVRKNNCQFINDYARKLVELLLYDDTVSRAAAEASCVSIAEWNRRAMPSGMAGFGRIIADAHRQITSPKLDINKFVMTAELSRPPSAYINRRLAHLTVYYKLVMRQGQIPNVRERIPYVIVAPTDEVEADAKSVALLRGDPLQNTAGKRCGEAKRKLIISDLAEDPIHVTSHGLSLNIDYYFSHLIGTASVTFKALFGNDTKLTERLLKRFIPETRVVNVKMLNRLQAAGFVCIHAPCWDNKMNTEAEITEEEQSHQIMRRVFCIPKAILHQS
pIC50: −log10 of the molar value.
readout name: pIC50

Would you please look over these solved cases?
O=C1CC[C@H](CC2Cc3c(C(=O)NCc4ccc(Cl)cc4)nn(CCN4CC(F)C4)c3C2)N1 (stereo partly shown) [Compound 132] ... 7.89
O=C1CC[C@H](CN2Cc3c(C(=O)NCc4ccc(Cl)cc4)nn(CCN4CC(F)C4)c3C2)N1 [Compound 4] ... 7.49

I: O=C1CC[C@H](CN2Cc3c(C(=O)NCc4ccc(Cl)cc4)nn(CCn4ccc(Cl)n4)c3C2)N1 [Compound 36]
II: CC(C1CC(F)C(=O)N1)N1Cc2c(C(=O)NCc3ccc(Cl)cc3)nn(C)c2C1 (stereo not shown) [Compound 76]
III: Cn1nc(C(=O)NCc2ccc(Cl)cc2)c2c1C1(CCC1)N(C[C@@H]1CCC(=O)N1)C2 [Compound 123]
## Input # ascending order, key=pIC50 A complete answer lists every label in the requested sequence.
## Output III, II, I

a: Cn1nc(C(=O)NCc2ccc(Cl)cc2)c2c1CC(C[C@H]1CCC(=O)N1)C2 (single isomer, unassigned) [Compound 129]
b: CC(C)(O)Cn1nc(C(=O)NCc2ccc(Cl)cc2)c2c1CN(C[C@H]1CCC(=O)N1)C2 [Compound 58]
## Input Of a and b , which shows the smaller pIC50 value? Answer with the label corresponding to your selection.
## Output b
(b: 7.72, a: 8.04)

A: Cn1nc(C(=O)NCc2ccc(Cl)cc2)c2c1CN(C[C@@H]1CC(F)C(=O)N1)C2 (stereo partly shown) [Compound 80]
B: O=C1CC[C@@H](CN2Cc3c(C(=O)NCc4ccc(Cl)cc4)nn(C(F)F)c3C2)N1 [Compound 46]
## Input Of A and B , which shows the smaller pIC50 value? Answer with the label corresponding to your selection.
## Output A
(A: 6.99, B: 7.64)

A: Cn1nc(C(=O)NCc2ccc(Cl)cc2)c2c1C(CO)N(C[C@H]1CCC(=O)N1)C2 (stereo partly shown) [Compound 122]
B: CC1(Cn2nc(C(=O)NCc3ccc(Cl)cc3)c3c2CN(C[C@H]2CCC(=O)N2)C3)COC1 [Compound 30]
## Input Of A and B , which shows the smaller pIC50 value? Answer with the label corresponding to your selection.
## Output B
(B: 7.18, A: 7.62)

P: Cn1nc(C(=O)NCc2ccc(Cl)cc2)c2c1CC(CC1CCC(=O)N1)C2 (single isomer, unassigned) [Compound 130]
Q: C[C@@H]1c2c(C(=O)NCc3ccc(Cl)cc3)nn(C)c2CN1C[C@H]1CCC(=O)N1 [Compound 126]
R: CC1c2c(c(C(=O)NCc3ccc(Cl)cc3)nn2C)CN1C[C@@H]1CCC(=O)N1 (stereo partly shown) [Compound 101]
S: CC1(C(=O)NCCn2nc(C(=O)NCc3ccc(Cl)cc3)c3c2CN(C[C@H]2CCC(=O)N2)C3)CC1 [Compound 26]
## Input hey, can you rank those compounds up there by pIC50? biggest number first please A complete answer lists every label in the requested sequence.
## Output P, S, Q, R
